Hello, the source for this data is ChEMBL document CHEMBL4257472, in case you need it.

assay.system: Cystathionine beta-synthase (Homo sapiens, UniProt P35520)
Sequence (P35520 whole entry): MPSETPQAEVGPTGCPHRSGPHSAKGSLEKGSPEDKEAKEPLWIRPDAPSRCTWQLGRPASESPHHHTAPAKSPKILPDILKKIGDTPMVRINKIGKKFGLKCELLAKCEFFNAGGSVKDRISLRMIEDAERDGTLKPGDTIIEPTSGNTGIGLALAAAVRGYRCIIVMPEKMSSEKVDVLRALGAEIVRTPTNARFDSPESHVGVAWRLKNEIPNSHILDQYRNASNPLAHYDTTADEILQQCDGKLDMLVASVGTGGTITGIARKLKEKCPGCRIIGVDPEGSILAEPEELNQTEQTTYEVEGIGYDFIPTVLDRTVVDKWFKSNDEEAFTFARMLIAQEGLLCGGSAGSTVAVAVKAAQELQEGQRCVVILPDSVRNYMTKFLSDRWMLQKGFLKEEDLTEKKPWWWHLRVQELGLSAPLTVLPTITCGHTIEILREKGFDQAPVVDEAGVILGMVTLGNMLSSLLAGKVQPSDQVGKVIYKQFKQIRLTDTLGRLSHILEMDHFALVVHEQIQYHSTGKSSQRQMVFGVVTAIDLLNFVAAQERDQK
test.method.notes: Inhibition of full-length GST-fused human CBS assessed as reduction in H2S production using 20 mM […] as substrate preincubated for 3 mins followed by substrate addition
property: IC50
Output should be the measured figure followed by the unit it is expressed in.

Task: Please give measured IC50 of the following entry: COc1ccc([C@H]2Oc3cc(O)cc(O)c3C(=O)[C@@H]2[C@H]2C(=O)c3c(O)cc(O)cc3O[C@@H]2c2ccc(O)cc2)cc1
Result: 5.5 µM
